- System: NOMO-1
- experimental_protocol: cell viability (% survival relative to DMSO control, bortezomib = 0%); higher = less cytotoxic
- conditions_used: 1000 nM; 72 h
Structures can show the parent of a compound that is named as a salt.
Recorded cell viability by entry
recorded_metric: cell viability (%)

- CC(=O)N[C@@H](CS)C(=O)O: 93.5
- CCCCCCCCCCCCCCOc1ccc(C(=O)O)o1: 99
- CCC(CC#N)OC(=O)N[C@@H](C)c1cccc(NC(=O)Nc2ccc(-c3cnco3)c(OC)c2)c1 (stereo in doubt): 34
- O=C(Cc1cccc(OC(F)(F)F)c1)Nc1ccc(CCCCc2nnc(NC(=O)Cc3ccccn3)s2)nn1: 79.2
- Cc1nnc(-c2ccc(N3CCC(Oc4ccccc4C(F)(F)F)CC3)nn2)s1: 108
- O=c1[nH]c(=O)n([C@H]2C[C@H](O)[C@@H](CO)O2)cc1I: 95.3
- O=C(c1c2ccccc2cc2ccccc12)N1CCC(N2CCC[C@@H](C(=O)N3CCOCC3)C2)CC1: 99.6
- OCCN(CCO)c1nc(N2CCCCC2)c2nc(N(CCO)CCO)nc(N3CCCCC3)c2n1: 92.3
- COc1ccc2c(c1)c(CC(=O)O)c(C)n2C(=O)c1ccc(Cl)cc1: 110
- O=C(CCl)N(CCCNC(=O)C(F)(F)F)c1ccc([N+](=O)[O-])cc1: 0.0839
- Cn1cc(C[C@@H](N)C(=O)O)c2ccccc21: 117
- Cl.OC[C@H]1NC[C@H](O)[C@@H](O)[C@H]1O: 100
- CCCCCCCCCCCCC/C=C/[C@@H](O)[C@H](CO)N(C)C: 94.1
- C=C1C(=O)O[C@H](CCCCCCCC)[C@H]1C(=O)O: 100
- CCCCC/C=C\C/C=C\C/C=C\C/C=C\CCCC(=O)C(F)(F)F: 84.5
- CC(C)(Cc1ccccc1)NCC(O)c1ccc(O)c(NS(C)(=O)=O)c1 (configuration not stated) [Zinterol hydrochloride]: 98.6
- CCCC(CCC)C(=O)O: 98.5

====

- Test system: KU-812
- experimental_protocol: cell viability (% survival relative to DMSO control, bortezomib = 0%); higher = less cytotoxic
- conditions_used: 1 nM; 72 h
Below is a list of entries, each paired with its recorded cell viability value.
recorded_metric: cell viability (%)

* CN(C)C(=O)n1nnnc1Cc1ccc(-c2ccccc2)cc1 | 101
* CC(=O)N[C@@H](CS)C(=O)O | 102
* CCC(CC#N)OC(=O)N[C@@H](C)c1cccc(NC(=O)Nc2ccc(-c3cnco3)c(OC)c2)c1 (stereo in doubt) | 93.6
* OC[C@H]1OC(O)C[C@@H](O)[C@@H]1O (some centres not stated) | 105
* O=C1N[C@@H]2[C@@H](O)[C@@H](O)[C@H](O)[C@@H](CO)N2C1=O | 92.5
* c1ccc2c(c1)SCc1c-2[nH]c2ccccc12 | 99.6
* CCCCC/C=C\C/C=C\C/C=C\C/C=C\CCCC(=O)C(F)(F)F | 104

====

- System: HL-60
- experimental_protocol: cell viability (% survival relative to DMSO control); higher = less cytotoxic
- conditions_used: 0.01 µM; 72 h; co-treatment: GSK2194069 100 nM
recorded_metric: cell viability (%)

- CC(C)(F)C[C@H](N[C@@H](c1ccc(-c2ccc(S(C)(=O)=O)cc2)cc1)C(F)(F)F)C(=O)NC1(C#N)CC1: 89.4
- CNC(=C[N+](=O)[O-])NCCSCc1ccc(CN(C)C)o1: 89.5
- C=C1C(=O)O[C@H](CCCCCCCC)[C@H]1C(=O)O: 88.2
- CC(C)(CS(=O)(=O)[O-])NC(=O)CC[N+](C)(C)CCO: 95.2
- Cc1nnc(-c2ccc(N3CCC(Oc4ccccc4C(F)(F)F)CC3)nn2)s1: 104
- Clc1cc(Cl)c(OCC#CI)cc1Cl: 107
- O=C(Cc1cccc(OC(F)(F)F)c1)Nc1ccc(CCCCc2nnc(NC(=O)Cc3ccccn3)s2)nn1: 94.8
- CCCCCCCNC=O [N-Heptyl-Formamide]: 103
- Cl.OC[C@H]1NC[C@H](O)[C@@H](O)[C@H]1O: 110
- CCC(CC#N)OC(=O)N[C@@H](C)c1cccc(NC(=O)Nc2ccc(-c3cnco3)c(OC)c2)c1 (stereo in doubt): 105
- C#CCN[C@@H]1CCc2ccccc21: 107
- COc1cc(C2Oc3cc(C4Oc5cc(O)cc(O)c5C(=O)C4O)ccc3OC2CO)ccc1O (stereo not drawn): 101
- CCCCC/C=C\C/C=C\C/C=C\C/C=C\CCCC(=O)C(F)(F)F: 101
- Cc1cc(O)c2c(c1)C(=O)c1cc(O)cc(O)c1C2=O: 76.2
- Fc1ccc(CNc2ncnc3ccc(F)cc23)cc1: 100
- Cc1[nH]n(-c2ccccc2)c(=O)c1C1(C(F)(F)F)C(=O)N(c2ccccc2)C2=C1C(=O)CC(C)(C)C2 (stereo not drawn): 106
- OCC(CO)N[C@H]1C[C@](O)(CO)[C@@H](O)[C@H](O)[C@H]1O: 104
- NS(=O)(=O)c1ccc(NC(=O)Cc2ccccc2)cc1 [4-(2-Phenylacetamido)Benzenesulfonamide]: 99.5
